This collection of values is drawn from PubChem BioAssay (NCI).

# System: SN12C renal
# test-description: NCI-60 one-dose screen, 48 h
# test-settings: 10 µM unless noted
About 83,000 compounds went through this panel and 20% of them were active in at least one assay; those are over-represented in the sample as a whole. The source made the active and inactive calls. The calls were made as follows: active = growth percent below 10; inactive = the rest.
Respond only with the outcome that fits, drawn from active, inactive

molecule: NC(=O)c1ccc(NC(=O)c2oc3ccccc3c2-c2cnn(-c3ccccc3)c2)cc1
class-label: inactive
--
molecule: S=c1[nH]c2cc(Cl)ccc2o1
class-label: inactive
--
molecule: C#Cc1cccc(Nc2nc3ccc([N+](=O)[O-])cc3nc2Nc2cccc(C#C)c2)c1
class-label: active
--
molecule: COc1ccc2c(c1)c(-c1ccc(-c3cn(C)c4ccc(OC)cc34)[nH]1)cn2C
class-label: inactive
--
molecule: Cc1ccc(C(=O)c2ccc(CC(=O)N/N=C/c3ccc(O)cc3O)n2C)cc1
class-label: inactive

Just curious, what result did CN1CCN(CCCOc2ccc3ncnc(Nc4ccc(Oc5cccc(F)c5)c(Cl)c4)c3c2)CC1 get here?
inactive

Just curious, what result did Cc1ncc(C(=O)Nc2ccc(CN3CCN(C)CC3)c(C(F)(F)F)c2)cc1C#Cc1cnc(N)c2ccncc12 get here?
active
